B1: TPR t1 (parent)
chain: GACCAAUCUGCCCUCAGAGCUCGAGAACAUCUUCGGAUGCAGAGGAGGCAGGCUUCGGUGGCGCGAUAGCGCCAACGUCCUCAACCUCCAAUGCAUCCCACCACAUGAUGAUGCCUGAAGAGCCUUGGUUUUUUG

Variants of: B1
ASSAY_NAME: polymerase ribozyme fitness, log enrichment relative to wild type (log ratio); higher = more active; in vitro selection for triplet polymerase activity
OUTCOME_MEASURE: polymerase ribozyme fitness (log ratio)
Returns: the value as a bare number; no unit string appended.

Query string: For the variant shown here, G45A G60A G110C , give the reported polymerase ribozyme fitness (log ratio).
Result string: -4.86

Query string: For the variant shown here, G48C G77U C89U C123U , give the reported polymerase ribozyme fitness (log ratio).
Result string: -0.348

Query string: For the variant shown here, C89A A111U G113A , give the reported polymerase ribozyme fitness (log ratio).
Result string: -5.69

Query string: For the variant shown here, A5U G17C A18U C20U A46C U59A A121G G127C , give the reported polymerase ribozyme fitness (log ratio).
Result string: -5.48

Query string: For the variant shown here, G10A A41U C53U U78G C89A A105U G120U , give the reported polymerase ribozyme fitness (log ratio).
Result string: -5.97

Query string: For the variant shown here, A84U C86A U125G , give the reported polymerase ribozyme fitness (log ratio).
Result string: -1.97

Query string: For the variant shown here, C115A A119U G122U , give the reported polymerase ribozyme fitness (log ratio).
Result string: -0.198

Query string: For the variant shown here, C12A G63C C102G C104U G113A , give the reported polymerase ribozyme fitness (log ratio).
Result string: -7.42

Query string: For the variant shown here, G10C G47U C101A A103U , give the reported polymerase ribozyme fitness (log ratio).
Result string: -6.38

Query string: For the variant shown here, C12G C20U C76A , give the reported polymerase ribozyme fitness (log ratio).
Result string: -1.37

Query string: For the variant shown here, U55A G77U C115U U125A , give the reported polymerase ribozyme fitness (log ratio).
Result string: -1.02

Query string: For the variant shown here, C72A C97U , give the reported polymerase ribozyme fitness (log ratio).
Result string: 0.226

Query string: For the variant shown here, A37U C40A G69C U130A , give the reported polymerase ribozyme fitness (log ratio).
Result string: -3.51

Query string: For the variant shown here, G25U C56G G63C A121U , give the reported polymerase ribozyme fitness (log ratio).
Result string: -5.04

Query string: For the variant shown here, C15G C70G A90G C114G , give the reported polymerase ribozyme fitness (log ratio).
Result string: -6.41

Query string: For the variant shown here, A29U C72U C102U , give the reported polymerase ribozyme fitness (log ratio).
Result string: -5.4

Query string: For the variant shown here, G45U G63C , give the reported polymerase ribozyme fitness (log ratio).
Result string: -2.21

Query string: For the variant shown here, G36C C70G , give the reported polymerase ribozyme fitness (log ratio).
Result string: -5.05

Query string: For the variant shown here, U7A G61A C73A C104G U109C , give the reported polymerase ribozyme fitness (log ratio).
Result string: -6.61

Query string: For the variant shown here, A2G G47U A84C C88U A90U A91C U133G , give the reported polymerase ribozyme fitness (log ratio).
Result string: -2.71

Query string: For the variant shown here, A2U A37G G61A U87G , give the reported polymerase ribozyme fitness (log ratio).
Result string: -2.89

Query string: For the variant shown here, A6G G71A G120C , give the reported polymerase ribozyme fitness (log ratio).
Result string: 0.128
